- Assay Remarks: in vitro
- Format: cell-based
Property Label: EC50 (µg/mL)

NCc1cc(C(F)(F)F)ccc1Oc1ccc(Oc2ccc(C(F)(F)F)cc2CN)cc1 = 364
Cn1c(-c2ccc(N3CCNCC3)cc2)cnc1-c1ccc(N2CCNCC2)cc1 = 287
NCCSc1ccc(C(F)(F)F)cc1C(=O)Nc1ccc(-c2ccc(NC(=O)c3cc(C(F)(F)F)ccc3SCCN)cc2)cc1 = 1
N=C(N)NCCc1ccc(-c2ccc(-c3ccc(CCNC(=N)N)cc3)s2)cc1 = 24

1: COc1ccc(C(=O)Nc2cc(C(F)(F)F)cc(NC(=O)c3cc(C(=O)Nc4cc(C(F)(F)F)cc(NC(=O)c5ccc(OC)c(OC)c5)c4SCCN)ncn3)c2SCCN)cc1OC
2: NCCSc1ccc(NC(=O)c2cc(C(=O)Nc3ccc(SCCN)c(C(F)(F)F)c3)ncn2)cc1C(F)(F)F
Given 1 and given 2 , which shows the smaller recorded EC50? // caller expects the label of the chosen entry
2

----------
- Assay Remarks: Cytotoxicity against 3T3 cells
- Format: cell-based
- Experimental Context: mouse, 3T3 cells; read-out: Cytotoxicity 3T3 EC50
Property Label: EC50 (µM)
Hi! Could you send only the number? It should be in µM, unit omitted.

COc1ccc(CN)cc1NC(=O)c1cc(C(=O)Nc2cc(CN)ccc2OC)ncn1 = 302
NCCSc1ccc(NC(=O)c2cc(C(=O)Nc3ccc(SCCN)c(C(F)(F)F)c3)ncn2)cc1C(F)(F)F = 1

Consider the record given below.
Which EC50 reading was recorded for the compound NCCSc1c(NC(=O)c2ccccc2)cc(C(F)(F)F)cc1NC(=O)c1cc(C(=O)Nc2cc(C(F)(F)F)cc(NC(=O)c3ccccc3)c2SCCN)ncn1 ?
934

----------
- Test system: P. falciparum 3D7 (chloroquine-sensitive)
- Assay Remarks: Anti-malarial activity, P. falciparum 3D7 culture, 72 hour, DNA content by flow cytometry
- Assay type: cell-based
- Experimental Context: synchronized ring-stage parasites
pIC50: −log10 of the molar value.
Property Label: pIC50

A: CCN(CC)CCN(CCN)c1c(F)cc(C(F)(F)F)cc1NC(=O)Nc1cc(C(F)(F)F)cc(F)c1N(CCN)CCN(CC)CC
B: N=C(N)NCCc1cccc(-c2cn(-c3cccc(CCNC(=N)N)c3)nn2)c1
Compare A and B by numeric pIC50 and name the larger one. Respond using the label that marks the chosen record.
B

----------
Reported values of EC50 for individual entries
- Assay Remarks: Cytotoxicity against HepG2 cells
- Format: cell-based
- Experimental Context: human

N=C(N)NCCCn1c2ccc(C3=CCNCC3)cc2c2cc(C3=CCNCC3)ccc21 = > 1000 µM

May I ask what EC50 has been recorded for NCCCn1c2ccc(C3=CCNCC3)cc2c2cc(C3=CCNCC3)ccc21 ?
> 1000 µM

----------
- Tested on: P. falciparum DD2 (chloroquine-resistant)
- Assay Remarks: Anti-malarial activity, P. falciparum DD2 culture, 72 hour, DNA content by flow cytometry
- Type: cell-based
- Experimental Context: Plasmodium falciparum, synchronized ring-stage parasites
Property Label: IC50 (nM)

Example molecules with recorded IC50:
N=C(N)NCCN1CCc2ccc(NC(=O)c3cc(C(=O)Nc4ccc5c(c4)CCN(CCNC(=N)N)CC5)ncn3)cc2CC1 = 530
FC(F)(F)c1cc(NC2CCNCC2)ccc1Oc1ccc(Oc2ccc(NC3CCCNC3)cc2C(F)(F)F)cc1 (stereo not shown) = 1180
N=C(N)NCCSc1cc(SCCN)c(NC(=O)c2cc(C(=O)Nc3cc(C(F)(F)F)c(SCCNC(=N)N)cc3SCCN)ncn2)cc1C(F)(F)F = 664

P: NCCN1CCc2ccc(NC(=O)c3cc(C(=O)Nc4ccc5c(c4)CCN(CCN)CC5)ncn3)cc2CC1
Q: FC(F)(F)c1ccc(CN2CCNCC2)cc1Oc1ccc(Oc2cc(CN3CCNCC3)ccc2C(F)(F)F)cc1
Between P and Q , which one shows the larger IC50 value? Answer by stating the label of the chosen item.
Q
(Q: 1100 nM, P: 331 nM)

1: N=C(N)NCCCc1cc(SCCN)c(NC(=O)c2cc(C(=O)Nc3cc(C(F)(F)F)c(CCCNC(=N)N)cc3SCCN)ncn2)cc1C(F)(F)F
2: N=C(N)NCCCCC(=O)Nc1ccc(-c2ccc(NC(=O)CCCCNC(=N)N)c(C(F)(F)F)c2)cc1C(F)(F)F
Two entries are listed, 1 and 2 . Which one carries the higher IC50? Returns: label corresponding to the selected item.
1
(1: 398 nM, 2: 274 nM)

1: COc1ccc(CN)cc1NC(=O)c1cc(C(=O)Nc2cc(CN)ccc2OC)ncn1
2: N=C(N)NCCCCC(=O)Nc1ccc(-c2nnc(-c3ccc(NC(=O)CCCCNC(=N)N)cc3)o2)cc1
Endpoint returns whichever of 1 and 2 has the numerically higher IC50. Indicate your choice by writing its label.
1
(1: 564 nM, 2: 65 nM)

a: NCCSc1c(N)cc(C(F)(F)F)cc1NC(=O)c1cn(C2CC2)c2cc(N3CCNCC3)c(F)cc2c1=O
b: N=C(N)NCCCOc1cc(OCCCNC(=N)N)c(-c2ccc(C(F)(F)F)cc2)cc1-c1ccc(C(F)(F)F)cc1
Hi! Which is lower in terms of IC50, the first one a or the second one b ? Use the label to indicate which entry you chose.
b

----------
- Assay Remarks: Cytotoxicity against 3T3 cells
- Assay type: cell-based
- Experimental Context: mouse, 3T3 cells; read-out: Cytotoxicity 3T3 EC50
Property Label: pEC50
Scale: pEC50 equals -log10([C]), with [C] in mol/L.

Previously resolved entries follow.
N=C(N)NCCCCOc1cc(OCCCCNC(=N)N)c(C(F)(F)F)cc1NC(=O)c1cc(C(=O)Nc2cc(C(F)(F)F)c(OCCCCNC(=N)N)cc2OCCCCNC(=N)N)ncn1 = 4.60
N#Cc1cccc(C(=O)Nc2cc(C(F)(F)F)cc(NC(=O)c3cc(C(=O)Nc4cc(C(F)(F)F)cc(NC(=O)c5cccc(C#N)c5)c4SCCN)ncn3)c2SCCN)c1 = 4.13
N=C(N)NCCSc1ccc(NC(=O)Nc2cccc(CCNC(=N)N)c2)cc1C(F)(F)F = 3.40
NCCCc1ccc(-c2ccc(CCCN)cc2)cc1 = 3.20
COc1cc(SCCNC(=N)N)c(C(F)(F)F)cc1NC(=O)c1cc(C(=O)Nc2cc(C(F)(F)F)c(SCCNC(=N)N)cc2OC)nc(SCCNC(=N)N)n1 = 3.32
CC1(C)c2cc(-c3cccc(CCNC(=N)N)c3)ccc2-c2ccc(-c3cccc(CCNC(=N)N)c3)cc21 = 5.22

Now look at this entry.
Value lookup for pEC50; key = CC(=O)Nc1cc(C(F)(F)F)cc(NC(=O)c2cc(C(=O)Nc3cc(C(F)(F)F)cc(NC(C)=O)c3SCCN)ncn2)c1SCCN
3.05

----------
- Assay Remarks: in vitro
- Type: cell-based
Property Label: EC50 (µg/mL)

Consider the reported EC50 for these molecules:
N#Cc1ccc(C(=O)Nc2cc(C(F)(F)F)cc(NC(=O)c3cc(C(=O)Nc4cc(C(F)(F)F)cc(NC(=O)c5ccc(C#N)cc5)c4SCCN)ncn3)c2SCCN)cc1 = 757
NCCSc1c(NC(=O)c2cccc(F)c2)cc(C(F)(F)F)cc1NC(=O)c1cc(C(=O)Nc2cc(C(F)(F)F)cc(NC(=O)c3cccc(F)c3)c2SCCN)ncn1 = 223
CC(C)N1CCc2ccc(NC(=O)c3cc(C(=O)Nc4ccc5c(c4)CCN(C(C)C)CC5)ncn3)cc2CC1 = 560
N#Cc1ccc(C(=O)Nc2cc(C(F)(F)F)cc(NC(=O)c3cc(C(=O)Nc4cc(C(F)(F)F)cc(N)c4SCCN)ncn3)c2SCCN)cc1 = 2

a: NCCSc1c(NC(=O)c2cccc(Br)c2)cc(C(F)(F)F)cc1NC(=O)c1cc(C(=O)Nc2cc(C(F)(F)F)cc(NC(=O)c3cccc(Br)c3)c2SCCN)ncn1
b: CC(=O)Nc1cc(C(F)(F)F)cc(NC(=O)c2cc(C(=O)Nc3cc(C(F)(F)F)cc(N)c3SCCN)ncn2)c1SCCN
Identify the entry with the smaller EC50: a or b . State your choice using its label.
b

----------
// values below are reported EC50
- Test system: HepG2 cells
- Assay Remarks: Cytotoxicity against HepG2 cells
- Type: cell-based
Your answer should be a plain number; it is taken to be in µM.

CCn1c2ccc(C3=CCNCC3)cc2c2cc(C3=CCNCC3)ccc21 [Compound 282] = 126

// fetch HepG2 cells EC50 for N=C(N)NCCc1cccc(NC(=O)c2cc(C(=O)Nc3cccc(CCNC(=N)N)c3)nc(SCCN)n2)c1 [Compound 182]
345

Missing value: EC50, HepG2 cells, entry N=C(N)NCCCOc1cccc(-c2cncc(-c3cccc(OCCCNC(=N)N)c3)c2)c1 [Compound 133] . Fill in?
551

Record O=C(Nc1cc(C(F)(F)F)c(OC2CCNC2)cc1OC1CCNC1)c1cc(C(=O)Nc2cc(C(F)(F)F)c(OC3CCNC3)cc2OC2CCNC2)ncn1 (centres unmarked) [Compound 103] : what is its EC50 with HepG2 cells?
382

Recorded EC50 for NCCCOc1cccc(-c2ccc(-c3cccc(OCCCN)c3)s2)c1 [Compound 241] with HepG2 cells, please?
38

Write down the reported EC50 of N=C(N)NCCc1ccccc1-c1ccc(-c2ccccc2CCNC(=N)N)s1 [Compound 251] , test system: HepG2 cells.
692

# returns recorded EC50 (system: HepG2 cells) for CCN(CC)CCN(CCN)c1ccc(C(F)(F)F)cc1NC(=O)Nc1cc(C(F)(F)F)ccc1N(CCN)CCN(CC)CC [Compound 126]
562
